TARGET_DESC: SARS-CoV-2 Spike (SARS-CoV-2), P0DTC2
EXPERIMENT: ACE2:SARS-CoV-2 Spike inhibitor screening kit (Example 3)
OUTCOME_MEASURE: pIC50
// returns pIC50 (minus log10 of molar concentration), number only

Prompt: So what's the measured pIC50 for this one? NMTQGFWENPGGPTAWDLGK (modifications not checked) [Seq31 (LNCOV-37)]
Completion: 4.60

Prompt: So what's the measured pIC50 for this one? EQAKTFLDKFNHEAEDLFPKWSAFLKEQSTLAQMYG (modifications not checked) [Seq27 (LNCOV-27)]
Completion: 7.30

Prompt: So what's the measured pIC50 for this one? KTFLDKFNHEAEDLFPGPKWSAFLKEQSTLAQMYG (modifications not checked) [Seq28 (LNCOV-20)]
Completion: 7.30
